I'd be grateful if you could share measured pKi for these entries.
Biological target: GABA-A receptor; alpha-3/beta-3/gamma-2 (Homo sapiens, UniProt P18507+P28472+P34903)
Sequence (P18507 whole entry): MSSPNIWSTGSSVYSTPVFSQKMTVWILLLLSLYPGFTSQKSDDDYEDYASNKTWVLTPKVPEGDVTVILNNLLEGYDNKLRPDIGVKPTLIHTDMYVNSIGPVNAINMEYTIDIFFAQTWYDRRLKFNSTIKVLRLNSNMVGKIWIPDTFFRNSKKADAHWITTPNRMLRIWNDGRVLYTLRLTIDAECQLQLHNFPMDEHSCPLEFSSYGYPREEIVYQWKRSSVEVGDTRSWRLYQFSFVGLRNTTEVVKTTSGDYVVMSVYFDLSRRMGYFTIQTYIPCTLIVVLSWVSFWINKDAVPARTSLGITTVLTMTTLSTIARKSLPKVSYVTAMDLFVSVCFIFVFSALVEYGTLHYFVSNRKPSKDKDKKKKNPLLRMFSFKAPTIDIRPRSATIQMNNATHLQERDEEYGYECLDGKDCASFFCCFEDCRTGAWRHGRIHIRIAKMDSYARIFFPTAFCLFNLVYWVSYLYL
Sequence (P28472 whole entry): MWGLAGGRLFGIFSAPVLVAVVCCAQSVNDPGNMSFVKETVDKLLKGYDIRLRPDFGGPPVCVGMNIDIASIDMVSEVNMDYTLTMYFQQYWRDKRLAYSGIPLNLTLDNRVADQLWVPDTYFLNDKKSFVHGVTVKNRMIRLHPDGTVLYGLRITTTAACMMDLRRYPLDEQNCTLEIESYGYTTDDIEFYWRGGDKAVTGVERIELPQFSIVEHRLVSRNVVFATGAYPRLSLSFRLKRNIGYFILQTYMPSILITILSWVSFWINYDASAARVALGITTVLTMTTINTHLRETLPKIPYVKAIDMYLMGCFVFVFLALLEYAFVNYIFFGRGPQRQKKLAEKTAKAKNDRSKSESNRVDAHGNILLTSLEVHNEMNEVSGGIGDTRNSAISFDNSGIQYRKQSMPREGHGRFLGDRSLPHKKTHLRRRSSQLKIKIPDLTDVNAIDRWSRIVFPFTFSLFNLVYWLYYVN
Sequence (P34903 whole entry): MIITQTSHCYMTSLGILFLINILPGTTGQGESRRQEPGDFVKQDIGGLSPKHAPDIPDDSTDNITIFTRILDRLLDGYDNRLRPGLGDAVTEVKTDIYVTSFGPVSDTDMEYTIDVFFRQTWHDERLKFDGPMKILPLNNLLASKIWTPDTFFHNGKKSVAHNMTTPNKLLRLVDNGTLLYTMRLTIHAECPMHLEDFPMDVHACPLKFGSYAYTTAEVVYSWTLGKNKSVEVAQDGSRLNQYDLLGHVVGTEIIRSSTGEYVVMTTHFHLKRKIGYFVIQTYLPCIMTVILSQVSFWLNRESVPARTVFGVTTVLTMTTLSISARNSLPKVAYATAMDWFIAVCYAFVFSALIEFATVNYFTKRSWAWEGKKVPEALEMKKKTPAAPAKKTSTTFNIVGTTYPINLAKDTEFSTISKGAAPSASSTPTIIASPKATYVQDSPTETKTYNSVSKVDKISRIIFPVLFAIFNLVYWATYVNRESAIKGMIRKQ
Assay: Binding affinity for human GABA-A receptor alpha-3-beta-3-gamma-2 subunits in L(tk-) cells
When answering, recall that pKi equals minus log10 of the concentration in mol/L, and write that number alone.

[in] Field: pKi (GABA-A receptor; alpha-3/beta-3/gamma-2 (Homo sapiens, UniProt P18507+P28472+P34903)). Entry: c1ccc(CCCOc2nn3c(-c4ccccc4)nnc3c3ccccc23)cc1
[out] 6.38

[in] Kindly state the measured pKi obtained for Cc1ccc2c(c1)c(OCc1ccccn1)nn1c(-c3ccccc3)nnc21 with GABA-A receptor; alpha-3/beta-3/gamma-2 (Homo sapiens, UniProt P18507+P28472+P34903).
[out] 8.92

[in] Request - read-out pKi | tested on GABA-A receptor; alpha-3/beta-3/gamma-2 (Homo sapiens, UniProt P18507+P28472+P34903) | molecule Cc1cccc(COc2nn3c(C4CC4)nnc3c3ccccc23)n1
[out] 8.51

[in] For the record c1ccc(-c2nnc3c4ccccc4c(OCc4ccccn4)nn23)cc1 , what value of pKi is listed for GABA-A receptor; alpha-3/beta-3/gamma-2 (Homo sapiens, UniProt P18507+P28472+P34903)?
[out] 9.15

[in] Give GABA-A receptor; alpha-3/beta-3/gamma-2 (Homo sapiens, UniProt P18507+P28472+P34903) pKi for c1ccc(-c2nnc3c4c(c(OCc5ccccn5)nn23)CCCC4)cc1
[out] 9.07
